System: SK-MEL-5 melanoma
measurement_protocol: NCI tumour cell line growth inhibition, 48 h; in the data active = GI50 below about 0.43 µM; inactive = the rest
Outcome codes: active, inactive

molecule	assay_system	class_assignment
O=C(/C=C/c1cc2ccccc2[nH]c1=O)c1ccc(O)cc1	SK-MEL-5 melanoma	inactive
C[C@H]1O[C@@H](O[C@H]2[C@@H](O)C[C@H](O[C@H]3[C@@H](O)C[C@H](O[C@H]4CC[C@]5(C)C6CC[C@]7(C)[C@@H](C8=CC(=O)OC8)CC[C@]7(O)C6CC[C@@H]5C4)O[C@@H]3C)O[C@@H]2C)C[C@H](O)[C@@H]1O (stereo partly drawn)	SK-MEL-5 melanoma	active
COC1C[C@H](O[C@@H]2C[C@H](O[C@@H]3C[C@H](O[C@@H]4C(=O)c5c(cc6cc(O[C@H]7C[C@@H](O[C@H]8C[C@@H](O)[C@H](O)C(C)O8)[C@H](O)C(C)O7)c(C)c(O)c6c5O)C[C@H]4C(OC)C(=O)[C@@H](O)[C@@H](C)O)OC(C)[C@H]3O)OC(C)[C@@H]2O)OC(C)[C@@H]1O (stereo partly drawn)	SK-MEL-5 melanoma	active
Cc1c(-c2c(F)cc(C(N)=O)c3[nH]c4c(c23)CC[C@H](C(C)(C)O)C4)cccc1-n1c(=O)c2cccc(F)c2n(C)c1=O	SK-MEL-5 melanoma	inactive
CC(=O)OCc1cc[c]([Hg][Cl])o1	SK-MEL-5 melanoma	inactive
Cn1cc(-c2nc(-c3c[nH]c4ccccc34)cs2)c2cccnc21	SK-MEL-5 melanoma	active
Nc1ncnc2c1ncn2Cc1ccc(CCl)cc1	SK-MEL-5 melanoma	inactive
COc1cc(-c2cc(-c3ccc(Nc4nc(Nc5ccc(Cl)cc5)nc(Nc5ccc(Cl)cc5)n4)cc3)no2)cc(OC)c1OC	SK-MEL-5 melanoma	inactive
[N-]=[N+]=NCCCn1c2c(c3ccccc3c1=O)C(=O)c1cc3c(cc1-2)OCO3	SK-MEL-5 melanoma	inactive
CC(=O)Nc1ccc2c(c1)[nH]c(=O)c1cc(NC(C)=O)ccc12	SK-MEL-5 melanoma	inactive
COc1cc(N2CCN(C(C)C)CC2)ccc1Nc1nc(Nc2ccc(F)cc2C(N)=O)c2cc[nH]c2n1	SK-MEL-5 melanoma	inactive
O=C(Nc1c(Cl)cccc1Cl)Oc1cccc2cccnc12	SK-MEL-5 melanoma	inactive
CC1(/C=C/c2ccc(-c3ccccc3)cc2)CCn2cnc3ncnc(c32)N1O (stereo not drawn)	SK-MEL-5 melanoma	active
Clc1ccc(Nc2nnc(COc3ccccc3)c3ccccc23)cc1	SK-MEL-5 melanoma	inactive
O=[N+]([O-])c1ccc(NC(c2ccccc2)c2ccc3cccnc3c2O)cc1 (stereo not drawn)	SK-MEL-5 melanoma	active
N/C(=N/O)NOCCC(N)C(=O)O (stereo not drawn)	SK-MEL-5 melanoma	inactive
C=C1[C@H](O)C[C@@H](C(C)C(O)CC=C(C)C)[C@@H](O)[C@@H]2C(C)=CC[C@@H]12 (stereo partly drawn)	SK-MEL-5 melanoma	inactive
CCCCCCCN(CCCCCCC)C(=N)c1ccc(OC)c2ccccc12	SK-MEL-5 melanoma	inactive

====

List of GI50 values.
Tested on: SF-268 CNS
measurement_protocol: NCI tumour cell line growth inhibition, 48 h
assay_endpoint: GI50

> print(dat)
                                   compound  test.value
1  O=C(Nc1n[nH]c2cc(-c3ccc(F)cc3)ccc12)C1CC1       11 µM
2  COc1ccc(C2CC(=O)Nc3c2c(C)nn3-c2nc3ccccc3[nH]2)cc1OC (stereo unspecified)     5.07 µM
3  COc1cc(N2CCN(C(C)C)CC2)ccc1Nc1nc(Nc2ccc(F)cc2C(N)=O)c2cc[nH]c2n1     3.36 µM
4  CC(=O)Nc1ccc2c(c1)[nH]c(=O)c1cc(NC(C)=O)ccc12    > 100 µM
5       c1ccc2c(c1)CCCc1nnc3nc4ccccc4n3c1-2     5.73 µM
6  O=C(O)[C@@H](Cc1ccccc1)NS(=O)(=O)c1ccc(-c2ccccc2)cc1    > 100 µM
